Documented EC50 (read off the curve) across a set of binders
Biological target: T1, biotinylated recombinant human LAG-3 (human, UniProt P18627 23-450, limits assumed, biotinylated)
T1 construct: also called soluble recombinant human LAG-3 protein
T1 sequence (looked up): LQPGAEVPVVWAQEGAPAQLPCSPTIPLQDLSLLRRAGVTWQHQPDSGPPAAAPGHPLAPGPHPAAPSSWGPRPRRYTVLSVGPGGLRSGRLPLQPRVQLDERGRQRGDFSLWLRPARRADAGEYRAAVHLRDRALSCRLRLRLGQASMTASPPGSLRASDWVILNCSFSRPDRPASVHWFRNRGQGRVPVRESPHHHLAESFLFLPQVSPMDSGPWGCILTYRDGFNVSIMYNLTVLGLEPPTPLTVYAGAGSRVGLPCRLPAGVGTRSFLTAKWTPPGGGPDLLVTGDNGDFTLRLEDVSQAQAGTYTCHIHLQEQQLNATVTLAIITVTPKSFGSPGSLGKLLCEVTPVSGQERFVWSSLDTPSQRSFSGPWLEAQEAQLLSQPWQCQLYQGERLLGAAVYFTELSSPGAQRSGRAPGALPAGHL
Assay: ELISA, antibody coated on the plate, biotinylated recombinant human LAG-3 titrated (x axis, nM), streptavidin detection, absorbance 450-570 nm

Below, each entry is followed by its recorded EC50 (read off the curve) result.
* anti-LAG-3 antibody clone F5 in IgG4 format (antibody, V domains shown, also called F5 IgG4) VH: EVQLVQSGAEVKKPGASVKVSCKVSGYTLTELSMHWVRQTPGKGLEWMGGFDPEDGETIYAQKFQGRVTMTEDTSTDTAYMELSSLRSEDTAVYYCATTWFGELYYWGQGTLVTVSS VL: ETTLTQSPGTLSLSPGERATLSCRASQSVSSGYLAWYQQKPGQAPRLLIYDASSRATGIPDRFSGSGSGADFTLTISRLQPEDFAVYYCQQYGSSRPGLTFGGGTRVEIK | ~3000 pM
* anti-LAG-3 antibody clone G8 in IgG4 format (antibody, V domains shown, also called G8 IgG4) VH: QVQLVQSGGGVVQPGRSLRLSCAASGFTFSSYAMHWVRQAPGKGLEWVAVISYDGSNKYYADSVKGRFTISRDNSKNTLYLQMNSLRAEDTAVYYCARDPDAANWGFLLYYGMDVWGQGTTVTVSS VL: EIVLTQSPGTLSLSPGERATLSCTTSQSVSSTSLDWYQQKPGQAPRLLIYGASSRATGIPDRFSGSGSGTDFTLTISRLEPEDFAVYYCQQYGSSLLTFGGGTKVEIK | ~400 pM

The record that follows has no EC50 (read off the curve) shown yet.
Problem: Form field: reported EC50 (read off the curve) of anti-LAG-3 antibody clone G8 in IgG1 format (antibody, V domains shown, IgG1 format; also called G8 IgG1) VH: QVQLVQSGGGVVQPGRSLRLSCAASGFTFSSYAMHWVRQAPGKGLEWVAVISYDGSNKYYADSVKGRFTISRDNSKNTLYLQMNSLRAEDTAVYYCARDPDAANWGFLLYYGMDVWGQGTTVTVSS VL: EIVLTQSPGTLSLSPGERATLSCTTSQSVSSTSLDWYQQKPGQAPRLLIYGASSRATGIPDRFSGSGSGTDFTLTISRLEPEDFAVYYCQQYGSSLLTFGGGTKVEIK
Result: ~800 pM
